Each entry below carries its recorded cell viability.
test system: U2OS; test: cell viability relative to DMSO; higher = less toxic; conditions: 72 h; 1000 nM
// return numeric value only (unit: %, not printed)

As a guide, the following entries are already answered.
1. CCC(=O)NC[C@H](Cc1ccc(OCCc2nc(-c3ccccc3)oc2C)cc1)N/C(C)=C\C(=O)c1ccc(C(F)(F)F)cc1 [GW-6471]; 100
2. CC(C)(C)[C@]1(O)CC2OC(=O)CC23C(=O)OC2OC(=O)[C@H](O)C231 (some centres undefined) [bilobalide]; 98.5
3. CCOC(=O)c1ncn2c1CN(C)C(=O)c1cc(F)ccc1-2 [flumazenil]; 103
4. CC(C)[C@@H]1CC[C@@H](C)C[C@@H]1P(=O)(c1ccccc1)c1ccccc1 [DPO-1]; 102
5. CC(C)(N)CC12CC3CC(CC(C3)C1)C2 [somantadine]; 91.7

Query block: Please look up its cell viability: "N[C@@H](CCNCc1ccc(Cl)cc1)C(=O)N1CCCCC1"
Result block: 99.5

Query block: Any idea what cell viability was measured for O=S1(=O)CCN(CN2CCS(=O)(=O)NC2)CN1 [taurolidine] ?
Result block: 103
